Test: Accelerated stability study of dabigatran etexilate mesylate (impurity contents by HPLC method 1)
Type: physicochemical
Settings: content of the named impurity in dabigatran etexilate mesylate of Example 6 after storage in a double polyethylene bag at 40° C. and 75% relative humidity for 3 months; HPLC method 1; area % with respect to dabigatran etexilate
Procedure: The chromatographic separation was carried out in a Kromasil 100-5C18, 5 μm, 4.6×250 mm column at 25° C. The mobile phase was prepared by filtering and degassing an acetonitrile/buffer solution (45:55) v/v mixture. The buffer solution was obtained by preparing a 50 mM formic acid solution in water and adjusting the pH to 3.8 with ammonium hydroxide. The chromatograph was equipped with a 254 nm detector and the flow rate was 1.0 mL per minute. 20 μL of the test samples were injected. […]
readout.kind: Compound/Impurity contents (area %) Example 7

molecule	numeric.readout
CCCCCCOC(=O)/N=C(/N)c1ccc(NCc2nc3cc(C(=O)N(CCC(=O)O)c4ccccn4)ccc3n2C)cc1	1.57
CCCCCCOC(=O)/N=C(/N)c1ccc(NCc2nc3cc(C(=O)N(CCC(N)=O)c4ccccn4)ccc3n2C)cc1	0.71
CCCCCCOC(=O)/N=C(/N)c1ccc(NCc2nc3cc(C(=O)OCC)ccc3n2C)cc1	0.42
Cn1c(CNc2ccc(C(=N)N)cc2)nc2cc(C(=O)N(CCC(=O)O)c3ccccn3)ccc21 [Compound (C1), reference compound]	1.64

Data provenance is patent US9086390B2.
